TEST_TARGET: KMT9 (Homo sapiens, UniProt Q9Y5N5)
Sequence (Q9Y5N5 whole entry): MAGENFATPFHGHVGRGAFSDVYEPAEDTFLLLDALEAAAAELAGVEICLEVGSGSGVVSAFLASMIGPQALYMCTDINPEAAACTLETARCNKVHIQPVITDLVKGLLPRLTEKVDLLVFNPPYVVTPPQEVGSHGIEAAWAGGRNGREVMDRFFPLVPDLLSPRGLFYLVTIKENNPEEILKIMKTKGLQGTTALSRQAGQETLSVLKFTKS
Sequence (Q9UI30 1-120 isoform Q9UI30-2 partner): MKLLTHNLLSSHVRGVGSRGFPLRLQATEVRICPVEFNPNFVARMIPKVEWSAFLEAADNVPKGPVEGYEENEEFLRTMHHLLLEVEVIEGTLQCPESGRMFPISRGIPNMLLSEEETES
ASSAY_SUMMARY: Microscale thermophoresis (MST) KMT9 binding
CONDITION_INFO: microscale thermophoresis, His-tag labelled KMT9 (20 nM); read-out: MST
pKd: −log10 of the molar value.
ENDPOINT_LABEL: pKd

Example compounds with recorded pKd:
CNc1ncnc2c1ccn2[C@@H]1C[C@H](CN(CCCNCCc2ccccc2)c2cnn(C)c2)[C@@H](O)[C@H]1O: < 6.00
Cc1cn([C@@H]2C[C@H](CNCCCNCCc3ccccc3)[C@@H](O)[C@H]2O)c2ncnc(N)c12: 6.00 to 7.00
CNc1ncnc2c1ccn2[C@@H]1C[C@H]([C@@H]2C[C@@H]2CCCNCCc2ccccc2)[C@@H](O)[C@H]1O: < 6.00
Nc1ncnc2c1c(-c1nc(Cc3ccccc3)cs1)cn2[C@@H]1C[C@H](C2=CCCNC2)[C@@H](O)[C@H]1O: 6.00 to 7.00
Cn1cc(-c2cn([C@@H]3C[C@H](CNCCCNCCc4ccccc4)[C@@H](O)[C@H]3O)c3ncnc(N)c23)cn1: 7.00 to 8.00
Nc1ncnc2c1c(-c1ccccc1)cn2[C@@H]1C[C@H](CNCCCNCCc2cccc(Oc3ccccc3)c2)[C@@H](O)[C@H]1O: 6.00 to 7.00
CCNC(=O)NCCCNC(=O)[C@H]1O[C@@H](n2cnc3c(N)ncnc32)[C@H](O)[C@@H]1O: < 6.00
Nc1ncnc2c1c(-c1nccs1)cn2[C@@H]1C[C@H](CNCCCNCCc2ccc(F)cc2)[C@@H](O)[C@H]1O: 7.00 to 8.00

Let's switch to this compound now.
*Q* What measured pKd goes with `CNc1ncnc2c1ccn2[C@@H]1C[C@H](CN(CCCNCCc2ccccc2)c2ccccc2)[C@@H](O)[C@H]1O` ?
*A* < 6.00
